Test system: ERK4;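 also: KINOMEscan kinase panel screen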
Construct: gene MAPK4
Settings: concentration: 1 μM, replicates: in singlicate; n = 1
Each entry below carries its recorded %Inh.
Respond with the bare value in %.

These solved cases illustrate the format of a correct answer.
>>> df
                                   compound  reported_endpoint  u  recorded_number
0  Nc1ncc(-c2cccnc2)c2scc(-c3ccc4c(c3)CCN4C(=O)Cc3ccccc3)c12               %Inh  %               21
1  COc1cc(Nc2nccc(N3CCC(NC(=O)c4cc5ccccc5s4)C3)n2)cc(OC)c1OC (stereo not drawn)               %Inh  %                0
2  Cn1cc(-c2ccc3c(c2)CCN3C(=O)Cc2cccc(Cl)c2)c2c(N)ncnc21               %Inh  %               11
3  CN1CCN(Cc2cccc(-c3ccc4c(Nc5ccc(Oc6ccccc6)cc5)ccnc4c3)c2)CC1               %Inh  %                9

Query block: Using the record for `Cc1ccc(F)c(C(=O)Nc2cccc(-c3nn4ccccc4c3-c3ccnc(Nc4cccc(F)c4)n3)c2)c1F` , state its measured %Inh.
Result block: 21

Query block: Using the record for O=C(NC1CCN(c2ccnc(Nc3ccc(F)cc3)n2)C1)c1cc2ccccc2s1 (stereo not drawn) , state its measured %Inh.
Result block: 31

Query block: Using the record for `O=C(Nc1ccccc1F)NC1CCN(c2ccnc(Nc3ccc(F)cc3)n2)CC1` , state its measured %Inh.
Result block: 0

Query block: Using the record for `c1ccc(-c2n[nH]cc2Nc2ccnc3ccccc23)nc1` , state its measured %Inh.
Result block: 0

Query block: Using the record for `COc1cccc(C2=C(Nc3ccc(Cl)c(C(=O)O)c3)C(=O)NC2=O)c1` , state its measured %Inh.
Result block: 19

Query block: Using the record for `COc1ccc(Nc2nccc(NCCNC(=O)c3cc4ccccc4s3)n2)cc1` , state its measured %Inh.
Result block: 0

Query block: Using the record for `Cc1occc1-c1ncc(OC[C@@H](N)Cc2c[nH]c3ccccc23)cc1-c1ccc2[nH]nc(C)c2c1.O=C(O)C(F)(F)F` , state its measured %Inh.
Result block: 15

Query block: Using the record for `C[C@@H](Oc1cc(-n2cnc3cc(-c4ccnc(NCCS(C)(=O)=O)c4)ccc32)sc1C(N)=O)c1ccccc1Cl` , state its measured %Inh.
Result block: 19

Query block: Using the record for `c1ccc(-c2cnc3nccnn23)cc1` , state its measured %Inh.
Result block: 0

Query block: Using the record for `Cl.c1ccc(-c2ccc3c(Nc4ccc5[nH]ccc5c4)ccnc3c2)nc1` , state its measured %Inh.
Result block: 6

Query block: Using the record for `CCn1c(-c2nonc2N)nc2c(C#CC(C)(C)O)ncc(OCCCCN)c21.O=C(O)C(F)(F)F.O=C(O)C(F)(F)F` , state its measured %Inh.
Result block: 8

Query block: Using the record for `COc1cc2c(cc1OCCN1CCNCC1)ncc1c3ccc(C#N)cc3[nH]c21` , state its measured %Inh.
Result block: 23

Query block: Using the record for `COc1cc(Nc2nccc(-c3c(-c4cccc(NC(=O)c5c(F)cccc5F)c4)nn4ncccc34)n2)cc(OC)c1OC` , state its measured %Inh.
Result block: 29

Query block: Using the record for `CN1CCN(CCCNc2nccc(-c3c(-c4ccc(F)cc4)nn4cc(C(F)(F)F)ccc34)n2)CC1` , state its measured %Inh.
Result block: 5

Query block: Using the record for `CC(C)(C)c1ccc2nccc(Nc3cccc(O)c3)c2c1` , state its measured %Inh.
Result block: 0

Query block: Using the record for `Nc1n[nH]c2cnc(-c3ccccc3)cc12` , state its measured %Inh.
Result block: 25

Query block: Using the record for `CC(C)c1nc(-c2cccc(NS(=O)(=O)c3c(F)cccc3F)c2F)c(-c2ccnc(Nc3ccc(N4CCOCC4)nc3)n2)s1` , state its measured %Inh.
Result block: 42

Query block: Using the record for NCCCC(NC(=O)c1cc(Br)c(-c2ccnc3[nH]ccc23)s1)c1ccccc1.O=C(O)C(F)(F)F.O=C(O)C(F)(F)F (stereo not drawn) , state its measured %Inh.
Result block: 0

Query block: Using the record for `O=C(Nc1cccc(-c2nn3ncccc3c2-c2ccnc(Nc3ccccc3)n2)c1)c1c(F)cccc1F` , state its measured %Inh.
Result block: 20

Query block: Using the record for `O=C(Nc1cccc(-c2nn3ccccc3c2-c2ccnc(Nc3cccc(C(F)(F)F)c3)n2)c1)c1c(F)cccc1F` , state its measured %Inh.
Result block: 0

Query block: Using the record for Cl.Cl.NCC(NCc1ccc(-c2ccnc3[nH]ccc23)s1)c1ccccc1 (stereo not drawn) , state its measured %Inh.
Result block: 0
